Target: Casein kinase I isoform alpha (Homo sapiens) (UniProt P48729);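 note: values are the mean percent inhibition of CK1a, averaged over measurements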
Sequence (P48729 2-337 limits assumed): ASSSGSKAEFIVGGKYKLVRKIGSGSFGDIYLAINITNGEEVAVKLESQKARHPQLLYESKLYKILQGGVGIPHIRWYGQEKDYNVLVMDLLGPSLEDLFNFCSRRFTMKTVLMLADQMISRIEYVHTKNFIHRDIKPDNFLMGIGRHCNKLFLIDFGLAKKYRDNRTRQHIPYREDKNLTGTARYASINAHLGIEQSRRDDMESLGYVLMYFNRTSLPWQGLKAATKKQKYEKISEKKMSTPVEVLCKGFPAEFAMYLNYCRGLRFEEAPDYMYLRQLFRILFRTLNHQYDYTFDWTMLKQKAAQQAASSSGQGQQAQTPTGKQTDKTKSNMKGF
Details: at 0.1 µM
reported-property: inhibition (%)
Hi! Could you send only the number? It should be in %, unit omitted.

Enquiry: Dear colleague, I am looking for the recorded inhibition of the following compound: Cc1ccc(C(=O)NC2CC2)cc1-c1ccc2[nH]ncc2c1
Return: -6.12

Enquiry: How about Cc1ccc2c(c1)/C(=N/Nc1ccc(S(N)(=O)=O)cc1)C(=O)N2 ?
Return: 0.07

Enquiry: Let us now turn to COc1cc(Nc2nccc(-c3cnn4ncccc34)n2)cc(OC)c1
Return: 11.9

Enquiry: Field entry: CS(=O)(=O)Nc1cccc(-c2ccc3c(NC(=O)C4CC4)n[nH]c3c2)c1
Return: 1.72

Enquiry: Note, next up: C[C@@H](Oc1cc(-n2cnc3ccc(OCC4CCN(C)CC4)cc32)sc1C(N)=O)c1ccccc1C(F)(F)F
Return: -4.16

* * *

Target: RAC-beta serine/threonine-protein kinase (Homo sapiens) (UniProt P31751);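 note: reported figure is the mean percent inhibition of AKT2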
Sequence (P31751 whole entry): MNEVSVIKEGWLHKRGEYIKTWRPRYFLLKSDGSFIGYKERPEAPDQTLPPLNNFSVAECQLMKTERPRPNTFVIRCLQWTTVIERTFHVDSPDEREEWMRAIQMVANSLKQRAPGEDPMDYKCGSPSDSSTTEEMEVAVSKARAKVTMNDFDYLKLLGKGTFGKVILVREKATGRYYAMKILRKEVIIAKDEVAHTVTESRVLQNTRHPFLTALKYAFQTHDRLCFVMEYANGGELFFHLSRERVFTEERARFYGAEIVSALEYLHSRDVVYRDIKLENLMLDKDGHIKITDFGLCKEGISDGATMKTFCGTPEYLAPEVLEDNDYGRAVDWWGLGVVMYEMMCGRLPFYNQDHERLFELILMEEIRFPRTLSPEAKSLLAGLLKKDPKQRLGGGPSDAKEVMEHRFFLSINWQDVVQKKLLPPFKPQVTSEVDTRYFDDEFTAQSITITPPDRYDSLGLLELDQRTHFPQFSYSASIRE
Settings: at 0.1 µM
reported-property: inhibition (%)
Give the quantity in %, number only.

Enquiry: Item under review: O=S(=O)(CCOCc1ccc(-c2ccc3ncnc(Nc4ccc(OCc5cccc(F)c5)c(Cl)c4)c3c2)o1)c1ccccc1 . Reported inhibition?
Return: 0.2

Enquiry: Try COC(=O)Nc1nc2cc(Oc3ccc(NC(=O)Nc4cccc(Br)c4)cc3)ccc2[nH]1 next.
Return: 1.35

Enquiry: Again, but for COc1cc2ncnc(Nc3ccc4c(cnn4Cc4ccccc4)c3)c2cc1OC
Return: 0.99

Enquiry: Now consider CC(C)c1ccc2c(c1)NC(=O)/C2=N/Nc1ccc(S(N)(=O)=O)cc1 and answer again.
Return: -0.37

Enquiry: What do you have for CCS(=O)(=O)c1ccc(OC)c(Nc2ncc(-c3cccc(OC)c3)o2)c1 ?
Return: 1.41

Enquiry: Check CCn1c(-c2nonc2N)nc2c(C#CC(C)(C)O)nc(OCCNC)cc21 too.
Return: 33.1

Enquiry: Now the compound Cc1ccc(O)cc1Nc1ccnc2ccc(S(C)(=O)=O)cc12
Return: 2.36

Enquiry: Follow-up item: Cc1ccc(NC(=O)CC2CC2)cc1-c1ccc(C(=O)NCC2CC2)cc1
Return: 1.47

Enquiry: Another compound: Cc1ccc(Nc2ccnc(Nc3cccc(C(N)=O)c3)n2)cc1O
Return: -1.66

Enquiry: Try this compound next: COc1cccc(-n2ncc3c(N/N=C/c4ccc(C)cc4)ncnc32)c1
Return: 1.76

* * *

Test system: Tyrosine-protein kinase ABL1 (Homo sapiens), P00519 [E255K]
Sequence (P00519 whole entry E255K): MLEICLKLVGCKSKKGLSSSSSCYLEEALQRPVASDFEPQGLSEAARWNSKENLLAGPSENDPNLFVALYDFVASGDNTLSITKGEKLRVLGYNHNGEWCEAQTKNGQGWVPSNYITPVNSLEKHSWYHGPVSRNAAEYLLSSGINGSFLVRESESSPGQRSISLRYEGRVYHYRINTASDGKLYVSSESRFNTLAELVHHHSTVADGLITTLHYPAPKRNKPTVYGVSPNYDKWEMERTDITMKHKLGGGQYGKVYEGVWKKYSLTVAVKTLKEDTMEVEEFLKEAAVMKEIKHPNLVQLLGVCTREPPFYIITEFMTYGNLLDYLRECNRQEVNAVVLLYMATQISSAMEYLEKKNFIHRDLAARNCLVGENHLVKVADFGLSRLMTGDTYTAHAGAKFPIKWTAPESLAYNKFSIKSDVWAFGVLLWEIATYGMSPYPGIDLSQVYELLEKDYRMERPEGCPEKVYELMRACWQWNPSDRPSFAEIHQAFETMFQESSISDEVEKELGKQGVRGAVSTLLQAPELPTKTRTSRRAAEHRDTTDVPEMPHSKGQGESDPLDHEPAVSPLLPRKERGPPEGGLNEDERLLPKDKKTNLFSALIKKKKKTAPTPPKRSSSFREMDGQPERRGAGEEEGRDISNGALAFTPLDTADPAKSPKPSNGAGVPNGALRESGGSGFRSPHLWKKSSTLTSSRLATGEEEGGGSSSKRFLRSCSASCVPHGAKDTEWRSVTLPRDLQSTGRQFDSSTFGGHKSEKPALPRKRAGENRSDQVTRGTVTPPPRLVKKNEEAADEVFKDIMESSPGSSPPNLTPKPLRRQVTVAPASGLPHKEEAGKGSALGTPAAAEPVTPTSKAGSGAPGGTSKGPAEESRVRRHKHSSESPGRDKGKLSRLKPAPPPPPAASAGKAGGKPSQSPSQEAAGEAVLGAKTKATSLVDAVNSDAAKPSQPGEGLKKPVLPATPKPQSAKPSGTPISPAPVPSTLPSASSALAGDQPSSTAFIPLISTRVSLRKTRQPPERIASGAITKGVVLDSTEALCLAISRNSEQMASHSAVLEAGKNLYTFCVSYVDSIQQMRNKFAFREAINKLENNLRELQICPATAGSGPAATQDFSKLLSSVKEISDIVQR
Conditions: at 1 µM
reported-property: inhibition (%)
Field: numeric (%). Do not append units.

Enquiry: Please look up its inhibition: ON=C1CCc2cc(-c3nc(C4CCNCC4)[nH]c3-c3ccncc3)ccc21
Return: 0.64

Enquiry: Further, for CN(C)c1cc2c(Nc3ccc4c(cnn4Cc4ccccc4)c3)ncnc2cn1 ?
Return: 1.85

Enquiry: Similarly, Cc1nc(-c2ccccc2)n2nc(NCCCN3CCOCC3)ncc12 ?
Return: 2.36

Enquiry: Moving on to the next compound: CCOc1nccc2c1nc(-c1nonc1N)n2CC
Return: 3.45

Enquiry: Input COc1cccc(-n2ncc3c(N/N=C/c4ccc(S(C)(=O)=O)cc4)ncnc32)c1
Return: 93.4

Enquiry: How about this compound: Cc1cc(-c2ccccn2)cc(C)c1/C=C/c1cncc(-c2nn[nH]n2)c1
Return: 3.22

Enquiry: Moving on to the next compound: Cc1ccc2c(c1)/C(=N/Nc1ccc(S(N)(=O)=O)cc1)C(=O)N2
Return: 3.57

Enquiry: Lookup COc1cccc(-n2nc(C)c3c(N/N=C(\C)c4ccncc4)ncnc32)c1
Return: 1.53

Enquiry: Please do the same for COc1cc2ncn(-c3cc(OCc4ccccc4S(C)(=O)=O)c(C#N)s3)c2cc1OC as well.
Return: 46.7

Enquiry: Subsequent entry: COc1ccc(-c2nn3ncccc3c2-c2ccnc(Nc3cccc(C(F)(F)F)c3)n2)cc1
Return: 3.04

Enquiry: Moving on to CN(C)C(=O)O[C@@H]1CN[C@@H](C#Cc2cc3ncnc(Nc4ccc(OCc5cccc(F)c5)c(Cl)c4)c3s2)C1
Return: 2.16

Enquiry: Now the compound COc1cc2ncnc(Nc3ccc(C)c(O)c3)c2cc1OC
Return: 85.8

Enquiry: Next record, please: COC(=O)c1ccc2c(c1)C(=Cc1cc(Br)c(O)c(Br)c1)C(=O)N2
Return: 13.1

Enquiry: Now give it for Nc1nccc(C#Cc2cncnc2Nc2ccc(OCc3cccc(F)c3)c(Cl)c2)n1 too.
Return: 3.58

Enquiry: Also CCCN1CCCC(c2ccc(Nc3nc(Nc4cc(F)ccc4C(N)=O)c4cc[nH]c4n3)c(OC)c2)C1 (stereo not drawn) , if possible.
Return: 5.75

Enquiry: Repeat with CS(=O)(=O)CCNCc1nc(-c2ccc3ncnc(Nc4ccc(OCc5cccc(C(F)(F)F)c5)cc4)c3c2)cs1
Return: 1.8

Enquiry: Now this one: CN(C)C(=O)O[C@H]1CN[C@H](C#Cc2cc3ncnc(Nc4ccc(OCc5cccc(F)c5)c(Cl)c4)c3s2)C1
Return: 3.31

Enquiry: Input NS(=O)(=O)c1ccc(NC=C2C(=O)Nc3ccc4ncsc4c32)cc1
Return: 37.9

Enquiry: Let us now turn to Cc1ccc2c(-c3ccnc(Nc4ccc5c(c4)OCCO5)n3)c(-c3ccc(C(F)(F)F)cc3)nn2n1
Return: 3.32

Enquiry: Also check COC(=O)c1cncc(/C=C/c2c(C)cc(O)cc2C)c1
Return: 38

Enquiry: Another compound to check: CC(C)c1ccc2c(c1)NC(=O)/C2=N/Nc1ccc(S(N)(=O)=O)cc1
Return: 12

Enquiry: Thanks! And c1ccc(Cc2nc3ccc(Nc4ncnc5ccccc45)cc3[nH]2)cc1 ?
Return: 4.34

Enquiry: Nc1nccc(-c2c(-c3ccc(F)cc3)ncn2CCCN2CCOCC2)n1 , same question.
Return: 4.81

Enquiry: Can you handle CN(C)CCCn1c(-c2nonc2N)nc2cnccc21 next?
Return: 4.1

Enquiry: # repeat for O=C1Nc2ccccc2/C1=C/Nc1ccc2[nH]c(=O)[nH]c2c1
Return: 15

Enquiry: Oc1cccc(-c2nc(-c3ccccc3)[nH]c2-c2ccncc2)c1 , same question.
Return: 26.7

Enquiry: Also C[C@@H](Oc1cc(-n2cnc3ccc(OC[C@@H](O)CO)cc32)sc1C(N)=O)c1ccccc1Cl ?
Return: 5.92

Enquiry: Also need CN(c1ccc(NC(=O)Nc2ccc(OC(F)(F)F)cc2)cc1)c1ccnc(Nc2cccc(S(N)(=O)=O)c2)n1 , thanks.
Return: 65.3
